Test system: 292921-168-R-J2-PDC KRAS tumor spheroid viability;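 further: drug exposure lasted seven days after spheroids formed for three days; percent of DMSO vehicle control viability which is 100%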
Assay: Anticancer human tumor 292921-168-R-J2-PDC patient-derived pancreatic carcinoma cell line growth inhibition [KRAS2]
Conditions: second compound 10 µM; first compound 0.316 µM; active compounds read low; spheroids with HUVEC and MSC
Reported endpoint: viability, T/C (%)

[[record]]
compound = "COC(=O)c1ccc2c(C(=Nc3ccc(N(C)C(=O)CN4CCN(C)CC4)cc3)c3ccccc3)c(O)[nH]c2c1 + C=CC(=O)N1CCN(c2nc(=O)n(-c3c(C)ccnc3C(C)C)c3nc(-c4c(O)cccc4F)c(F)cc23)C(C)C1"
test_value = 24.8

[[record]]
compound = "CCN1CCN(Cc2ccc(Nc3ncc(F)c(-c4cc(F)c5nc(C)n(C(C)C)c5c4)n3)nc2)CC1 + COc1cc2nc(C)nc(NC(C)c3cc(N)cc(C(F)(F)F)c3)c2cc1OC1CCOC1"
test_value = 12.2

[[record]]
compound = "CC1COCCN1c1cc(-c2ccnn2C)c2ccnc(-c3ccn[nH]3)c2n1 (centres undefined) + CC1OCC2(CCN(c3cnc(Sc4ccnc(N)c4Cl)c(N)n3)CC2)C1N"
test_value = 10.2

[[record]]
compound = "CC(=O)OC12COC1CC(O)C1(C)C(=O)C(O)C3=C(C)C(OC(=O)C(O)C(NC(=O)OC(C)(C)C)c4ccccc4)CC(O)(C(OC(=O)c4ccccc4)C21)C3(C)C (centres undefined) + CNCc1ccccc1-c1csc(C(C)Nc2nc(C)nc3cc(OC)c(OC)cc23)c1"
test_value = 0.04

